# experiment-description: yeast AGP1-GFP level changes, GLN3 branch – cell-based, multiplex flow cytometry, S. cerevisiae, primary screen (AID 1887);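 note: AGP1-GFP fusion strain of S. cerevisiae within a five-strain barcoded multiplex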
# experimental-conditions: 3 h, at 10 µM, stronger effect = higher value
Inconclusive results are not listed. Activity calls are given as the source filed them.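 Rule for the calls: active = GFP signal above the screen-wide mean plus 3 SD, that is over about 124.5% of the solvent control; inconclusive = no reading because the compound's own fluorescence disturbed strain identification; inactive = the rest.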
For each of the compounds below, state its GFP response, % of DMSO.

Look at this compound and give its reported GFP response, % of DMSO. OC(CCN1CCCC1)(c1ccccc1)C1CCCCC1 (stereo unspecified) 89.4% (inactive)

Input CN(C)c1ccc(CNCCC(Cc2ccccc2)c2ccco2)cc1 (stereo unspecified) 101% (inactive)

Input O=C(Cc1ccccc1[N+](=O)[O-])NCCCN1CCOCC1 107% (inactive)

Input O=C(c1ccco1)N1CCCN(Cc2nc(-c3ccc4c(c3)OCO4)no2)CC1 102% (inactive)

Input CN(C)CCN(Cc1ccc(Cl)cc1)c1ccccn1 118% (inactive)

Input Cc1ccc(S(=O)(=O)n2ccnc2)cc1C 121% (inactive)

###

# tested-target: Regulator of G-protein signaling 19 (Homo sapiens)
# experiment-description: small molecules altering RGS protein interactions with GNAO1 – biochemical, multiplexed beads, flow cytometry, RGS4/7/8/16/19, primary screen (AID 1504);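 note: fluorescently labeled Galpha-o bound to GDP with aluminium fluoride binding biotinylated RGS beads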
# experimental-conditions: multiplexed bead flow cytometry, measured here: RGS19 interaction, at 10 µM
The other results are listed elsewhere or left out.
parameter-measured: RGS19–Galpha-o binding response (%)
Form entry: value (%) — number only.

Kindly state the measured RGS19–Galpha-o binding response obtained for COCCNC(=S)N/N=C/c1c(C)[nH]c2ccccc12 with Regulator of G-protein signaling 19 (Homo sapiens). 993

Input COc1ccc(C(=O)COC(=O)c2ccc3ccccc3n2)cc1 167

Input NC(=O)Cc1ccc2sc(-c3ccccc3)nc2c1 149

Input O=c1[nH]c2ccccc2s1 148

Input O=C(NC1CC1)c1ccc2c(c1)NC(=O)c1ccccc1S2 370

Input CN(C)CCNC(=O)/C(=C/c1cccc([N+](=O)[O-])c1)NC(=O)c1ccccc1 -55.8

Input COc1ccc(-n2c(SCC(=O)OC(C)C)nnc2-c2ccccn2)cc1 103

Input COc1ccc(-c2nn(-c3ccccc3)cc2C(=O)Nc2nccs2)cc1OC 172

Input O=C(Nc1cccc(F)c1)c1coc(=O)c(Br)c1 108

Input CC(C)Cc1nc(Nc2ccc(S(=O)(=O)N3CCCC3)cc2)c2nnn(Cc3ccccc3)c2n1 48.9

Input CCOC(=O)CSc1nc2c(c(=O)n(Cc3ccccc3Cl)c(=O)n2C)n1C 98.5

Input Cc1cc2nc(C)n(CCCNC(=O)Nc3ccccc3)c2cc1C 94.8

Input Cc1cc(C)cc(N(CC(=O)Nc2c(C)n(C)n(-c3ccccc3)c2=O)S(C)(=O)=O)c1 156

Input Cc1ccc(-n2c(SCC(=O)Nc3ncc(Cl)cc3Cl)nc3ccccc32)cc1 134

Input C=CCn1c(Cn2nnc3ccccc32)nnc1SCC(=O)N/N=C/c1cc(Br)cc(OC)c1O 144

Input Cc1ccc(C)c(OCC(=O)N2CCN(C(=O)c3ccco3)CC2)c1 113

Input O=C(CSc1ccc2nnc(-c3ccccc3)n2n1)N1CCCc2ccccc21 -1120

Input Cc1ccc(Cn2ccc(NC(=O)c3cc(C(C)C)on3)n2)cc1 -20

Input CCOC(=O)C1=C(c2ccccc2)N=C2SCC(=O)N2C1c1ccc(O)c(OC)c1 (stereo unspecified) -290

Input FC(F)Oc1ccccc1C1CC(c2ccc(Br)s2)Nc2ncnn21 (stereo unspecified) -1720

Input C=CCn1c(=NC(=O)c2cccs2)sc2cc(NC(C)=O)ccc21 58.7

Input O=C(CN1CCCCC1)N1c2ccccc2Sc2ccc(C(F)(F)F)cc21 241

Input CC1(C)C=C2[C@H]3CC[C@@H]4[C@@]5(C)CCC(=O)C(C)(C)[C@@H]5CC[C@@]4(C)[C@]3(C)CC[C@@]2(C(=O)O)CC1 -110

Input Oc1ccc(-c2onc3ccc(Cl)cc23)cc1 108

Input Cc1cc(C)n(CC(O)CN(c2ccccc2)S(=O)(=O)c2ccc3ccccc3c2)n1 (stereo unspecified) 163

Input C/C(=N\NS(=O)(=O)c1ccc(Br)cc1)c1cccs1 99.9

Input C/C(=C/C(=O)N1CCN(C)CC1)C(=O)O -6.25

Input CN(C)S(=O)(=O)Oc1ccccc1C(=O)Nc1ccccc1Cl 70.6

Input CC(=O)c1ccc(NC(=S)NC(=O)CC(C)C)cc1 162

Input CCN(CC)CCn1cnc2c1c(=O)n(CCOC(=O)c1cc(OC)c(OC)c(OC)c1)c(=O)n2C 76.4

Input Cc1cc(C)nc(/N=C2\NC(=O)CC(C(=O)O)N2c2ccc(Cl)cc2Cl)n1 (stereo unspecified) 104

Input Cc1ccc(N2C(=O)C3C(c4ccccc4)(C2=O)C3(c2ccccc2)c2ccccc2)cc1 (stereo unspecified) 310

Input O=C(OCC1O[C@@H](OC(=O)c2cc(O)c(O)c(O)c2)[C@@H](OC(=O)c2cc(O)c(O)c(O)c2)[C@@H](OC(=O)c2cc(O)c(O)c(O)c2)[C@@H]1OC(=O)c1cc(O)c(O)c(O)c1)c1cc(O)c(O)c(O)c1 (stereo partly specified) -410

Input Cc1ccccc1NC(=S)N(CCCN1CCOCC1)Cc1cccs1 80

Input COc1cccc(C(=O)NCCSc2ccc(Br)cc2)c1 1100

Input NC(=O)CSc1c[nH]c2ccccc12 -48.5

###

For each of the compounds below, state its fluorescence, percent of control (lower = inhibition).
# tested-target: Cell division control protein 42 homolog (Homo sapiens)
# experiment-description: inhibition of fluorescent GTP binding to wildtype Cdc42 – biochemical, multiplex bead flow cytometry, Bodipy-FL-GTP, dose response (AID 1334)
# experimental-conditions: bead-based flow cytometry, Bodipy-FL-GTP binding to GST-Cdc42; at 100 µM (top of the series) unless noted
Measured potencies and affinities stand elsewhere.

Look at this compound and give its reported fluorescence, percent of control (lower = inhibition). COc1ccc(C2=Nn3c(nnc3-c3ccccn3)SC2)cc1OC 34%

Input Cc1nc2ccc(NC(=O)COc3ccccc3)cc2s1 37.6%

Input O=c1[nH]c2sc3c(c2c2nncn12)CCCC3 23.4%

Input O=C(O)c1ccc(N2C(=O)/C(=C/c3ccc(-c4ccc([N+](=O)[O-])cc4)o3)C=C2c2ccccc2)cc1 33.9%

Input O=C(CCc1nc2ccccc2[nH]c1=O)OCC(=O)N1CCc2ccccc21 36.8%

Input COc1cc(/C=N/NC(=O)CSc2n[nH]c(=O)[nH]c2=O)cc(OC)c1O 36%

Input O=C(O)CCN1C(=O)/C(=C\c2ccc(-c3nc4ccccc4s3)o2)SC1=S 54.9%

Input O=C(COc1ncnc2cc([N+](=O)[O-])ccc12)NC(=O)NC1CCCCC1 31.6%

Input O=C(O)c1ccc(CNCc2cccc(Br)c2)s1 62.4%

Input CC(C)CCNC(=O)CN(CCN1CCOCC1)C(=O)Cn1nnc(-c2ccc(F)cc2)n1 97.1%

###

# experiment-description: reduced mouse 2C T cell binding to pMHC/ICAM-1 vesicles – MLPCN validation set, flow cytometry, LFA-1/ICAM-1 modulator project, pilot screen (AID 2523)
# experimental-conditions: 2C mouse CD8+ T cells, at 7 µM, stronger effect = lower value; measured here: CD8+/vesicle+ event percentage
parameter-measured: double positive events (%)
Form entry: value (%) — number only.

Look at this compound and give its reported double positive events. O=C(Cc1ccccc1[N+](=O)[O-])NCc1ccncc1 63.2

Input Cc1c(O)c(=O)ccn1C 64.3

Input COc1ccc(C2C(C(=O)c3ccco3)=C(O)C(=O)N2CC2CCCO2)cc1 (configuration not stated) 62.9

Input Cc1ccnc(NS(=O)(=O)c2ccc(N)cc2)n1 63.6

Input COc1ccc2cc(C(=O)OC(C)C)sc(=O)c2c1OC 61.9

Input CN(C)CCC(c1ccc(Cl)cc1)c1ccccn1 (configuration not stated) 56.3

Input O=C1[C@@H]2[C@H](Cc3ccc(O)cc3)N[C@]3(C(=O)Nc4ccccc43)[C@@H]2C(=O)N1c1ccc(F)cc1 61.1

Input COc1ccc(C2NC(=O)c3ccccc3O2)c(OC)c1OC (configuration not stated) 61.2

Input OC(CCCN1CCC(O)(c2ccc(Cl)cc2)CC1)c1ccc(F)cc1 (configuration not stated) 49.2

Input O=C1CC(c2ccc(OCCCCCOc3ccc(C4CC(=O)NC4=O)cc3)cc2)C(=O)N1 (configuration not stated) 63.3

Input c1cnc2c(c1)ccc1cccnc12 59.5

Input COc1cccc(OCC(O)CO)c1 (configuration not stated) 58.2

###

# experiment-description: reduced mouse 2C T cell binding to pMHC/ICAM-1 vesicles – MLPCN validation set, flow cytometry, LFA-1/ICAM-1 modulator project, pilot screen (AID 2523)
# experimental-conditions: 2C mouse CD8+ T cells, at 7 µM
Activity calls are given as the source filed them.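 How the source made its calls: active means response below a set limit, under 55% cells CD8-positive and vesicle-bound, and CD8 cells' 90th-percentile brightness under 279; inactive means the rest.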
Use one of these outcomes when replying: active, inactive

What call does the record list for CCOc1ccc2nc(N/C(N)=N/S(C)(=O)=O)nc(C)c2c1 ? inactive

Input CC1(C)Cc2ccccc2-c2n[nH]c(=S)n21 inactive

Input COc1cc(C(=O)OCCn2c(=O)c3c(ncn3CCN(C)C)n(C)c2=O)cc(OC)c1OC inactive

Input Cc1cccc2c(=O)n3c(nc12)CCCCC3 inactive

Input CCOC(=O)C1=C(C)NC(C)=C(C(=O)OC)C1c1cccc(Cl)c1Cl (centres undefined) inactive

Input COc1cc(NC(=S)NC(=O)c2cccs2)ccc1NC(=O)C(C)C inactive

Input Cc1cccc(NC(=O)c2cc3ccccc3o2)c1 inactive

Input COc1cc2c(cc1NCc1ccc3c(c1)OCO3)oc1ccccc12 inactive

Input CC(C)(CO)CNC(=O)CC1C(=O)NCCN1CC(c1ccccc1)c1ccccc1 (centres undefined) inactive

Input COc1cc(C(=O)Nc2cccc(-c3nnc(-c4ccco4)o3)c2)ccc1OC(C)=O active

Input O=C(O)CCSCCC(=O)O inactive

Input CCC(=O)c1ccc(OCc2ccc(C(=O)OC)cc2)cc1 inactive

Input COc1ccc2c(C=O)cn(C)c2c1 inactive

Input Cc1c(NC(=O)c2cccs2)cccc1[N+](=O)[O-] inactive

Input O=C(NC(=S)N1CCCCC1)c1cccnc1 inactive

Input Cc1ccccc1C(=O)Nc1ccccc1C(=O)NCC(C)C inactive

Input Cc1nnc(NS(=O)(=O)c2ccc(N)cc2)s1 inactive

Input CCCC(=O)Nc1ccccc1NC(C)=O inactive

Input CCc1oc2ccccc2c1C(=O)c1cc(Br)c(O)c(Br)c1 inactive

Input CC(C)C12CN3CC(C(C)C)(CN(C1)C3c1ccccc1O)C2=O (centres undefined) inactive

Input OC12CCCCC1C(c1ccc3c(c1)OCO3)N(Cc1cccc(F)c1)CC2 (centres undefined) inactive

Input COc1ccc(C2NC(=O)c3ccccc3O2)c(OC)c1OC (centres undefined) inactive

Input CN(C)CCOC(c1ccccc1)c1ccccc1 (tested in a mixture with another compound) inactive

Input CC12CN3CC(C)(CN(C1)C3c1ccc([N+](=O)[O-])o1)C2 (centres undefined) inactive
